# Tested on: Spodoptera littoralis
# protocolNotes: Insecticidal activity against Spodoptera littoralis larvae assessed as survival rat after 5 days
# Format: functional
observable: LC50 (µg/g)

1) COC(=O)[C@H]1[C@@H](OC(C)=O)[C@@]2(O)c3c(cc4c(c3OC)OCO4)O[C@@]2(c2ccc(OC)cc2)[C@@H]1c1ccccc1 | 12.2
2) COC(=O)[C@H]1[C@@H](O)[C@@]2(O)c3c(cc4c(c3OC)OCO4)O[C@@]2(c2ccc(OC)cc2)[C@@H]1c1ccccc1 | 2.1
3) C/C=C(\C)C(=O)O[C@H]1C[C@@H](OC(C)=O)[C@@]2(C(=O)OC)CO[C@H]3[C@@H](O)[C@@](C)([C@]45O[C@@]4(C)[C@@H]4C[C@H]5O[C@@H]5OC=C[C@@]54O)[C@H]4[C@]1(CO[C@]4(O)C(=O)OC)[C@@H]32 | 6.1

Reference for the values: ChEMBL document CHEMBL1151321
